# ASSAYED_SYSTEM: T1, CD27 protein (His-tagged, Sino Biological Inc. 10039-H08B1) (human, UniProt P26842 20-192)
# T1 construct: bought; coated onto ELISA plates; also called human CD27; recombinant protein; not shown: His tag
# T1 sequence (looked up): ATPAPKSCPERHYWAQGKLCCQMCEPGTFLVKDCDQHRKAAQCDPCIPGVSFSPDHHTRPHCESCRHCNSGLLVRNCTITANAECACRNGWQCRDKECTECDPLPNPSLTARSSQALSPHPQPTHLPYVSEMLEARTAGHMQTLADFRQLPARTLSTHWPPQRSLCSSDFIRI
# ASSAY_COMMENT: ELISA on coated His-tagged CD27; also: test concentration or dose not given here
Listed next: entries and their corresponding ELISA [abs. corr.].
Expressed in abs. corr., but write only the number.

// solved cases for ELISA [abs. corr.] follow
P018.S.05.A.H02 (antibody, V domains shown, V regions on human Ig constant parts; also called AB27_94) VH: QEQLEESGGRLVTPGGTLTLTCTASGFSLNSYDMSWVRQAPGKGLEWIGYIWSDGNTDYASWAAGRFTASRASTTVDLKMTSLTTEDTATYFCARGYTGFFLWGPGTLVTVSS VL: DVVMTQTPSSVSAAVGGTVTIKCQASQSIGSSYLSWYQQKPGQPPKLLIYEASTLASGVPSRFKGSGSGTEFTLTISDLESDDAATYYCQCTYYGGSWRVAFGGGTEVVVK	3.47
P018.S.01.A.C06 (antibody, V domains shown, V regions on human Ig constant parts; also called AB27_10) VH: QSVEESGGRLVTPGTPLTLTCTVSGIDLNNYVMGWVRQAPGKGLEWIGIINTAGSTYYANWAKGRFTISKTSTTVDLKITSPTTEDTATYFCARDSSYYIGYYFNLWGPGTLVTVSS VL: QIVMTQTPASVEVAVGGTVTIKCQASQSIGSNLAWYQQKPGQPPKLLIYDASDLESGVPSRFKGSGSGAQFTLTISDLESADAATYYCQQGYSATTNVDNAFGGGTEVVVK	3.3
P018.S.04.A.E04 (antibody, V domains shown, V regions on human Ig constant parts; also called AB27_75) VH: QSVEESGGRLVTPGTPLTLTCTVSGFSLSTYAMNWIRQAPGKGLEWIGTITTGGSTFFASWAKGRFTISKTSTTVDLKITSPTTEDTATYFCARGGDTGYGFSYFDLWGQGTLVTVSS VL: AVVLTQTPASVSEPVGGTVTIKCQASENIYSSLAWYQQKPGQPPKLLIYDASTLASGVPSRFKGSGSGTEYTLTISGVQSDDAATYYCQQGYSTSNLVNPFGGGTELVVN	3.38
P018.S.06.A.F06 (antibody, V domains shown, V regions on human Ig constant parts; also called AB27_110) VH: QSVEESGGRLVTPGTPLTLTCAASGFSLNSYVMSWVRQAPGKGLEWIGYIDYGGAPYYASWAKGRFTISKTSTTVELKITSPTIEDTGTYFCARGGYGGYVLVTALWGPGTLVTVSS VL: DIVMTQTPASVSEPVGGTVTIKCQASENIYSYLAWYQQKPGQPPKLLIYQASTLASGVSSRFKGSGSGTQFTLTISDLESADAATYYCQTYYGGSTYGNGFGGGTEVVVE	3.17
P018.S.08.A.H02 (antibody, V domains shown, V regions on human Ig constant parts; also called AB27_142) VH: QSLEESGGRLVTPGTPLTLTCTASGFSLSYYYMTWVRQAPGKGLEWIGITGGGGDTYYGTWAKGRFTISKTSTTVDLKMTSPTTEDTATYFCARGTDGAAHTGFALWGQGTLVTVSS VL: DIVMTQTPASVEAAVGGTVTIKCQASEDISSRLSWYQQKPGQPPKLLIYLASTLASGVPSRFKGSGSGTQFTLTISDLESADAATYYCQSSSYGTSTIYGTFGGGTEVVVK	3.58

The binder listed as P018.S.01.A.G02 (antibody, V domains shown, V regions on human Ig constant parts; also called AB27_21) VH: QEQLEESGGRLVTPGGTLTLTCTASGFSLSSYDMSWVRQAPGKGLEWIGYIWSDGNTDYATWAAGRFTASRASTTVDLKMTSLTTEDTATYFCARGYTGFFLWGPGTLVTVSS VL: DVVMTQTPSSVSAAVGGTVTIKCQASQSIGSSYLSWYQQKPGQPPKLLIYKTSTLASGVPSRFKGSGSGTEFTLTISDLESDDAATYYCQCTYYGGSWRVAFGGGTEVVVK shows ELISA [abs. corr.] equal to 3.67

Recorded ELISA [abs. corr.] (binder P018.S.07.A.B05 (antibody, V domains shown, V regions on human Ig constant parts; also called AB27_117) VH: QSLEESGGDLVKPGASLTLTCTASEFSFSNNYYICWVRQAPGKGLEWIACIYVHSGTTDYATWAKGRFTISRTSSTTVTLQMTSLTVADTATYFCARGRSGYYADAFDTWGPGTLVTVSS VL: ALDMTQTPSPVSAAVGGTVTINCQASQSVYNNNNLAWYQQKPGQPPKLLIYLASNLASGVPSRFKGSGSGTQFTLTISEIQSDDAATYYCQGTDSSSGWEHAFGGGTEVVVK ): 3.42

The binder P018.S.07.A.C02 (antibody, V domains shown, V regions on human Ig constant parts; also called AB27_119) VH: QSVEESGGRLVTPGTPLTLTCTASGFSLSSYHMCWVRQAPGKGLEWIGIIYAGSGNTWYASWAKGRFTISKTSTTVDLKITSPTTEDTATYFCARQPGGGASDTQLDLWGQGTLVTVSS VL: AAVLTQTPSPVSAAVGGTVTINCQSSQSVFDNNQLSWFQHKPGQSPKLLIYRASTLASGVPSRFKGSGSGTQFTLTISDLESDDAATYYCLGGYSSSSDTVFGGGTEVVVE showed ELISA [abs. corr.] equal to 3.13

// ELISA [abs. corr.] value for P018.S.01.A.D04 (antibody, V domains shown, V regions on human Ig constant parts; also called AB27_12) VH: QEQLEESGGRLVTPGGTLTLTCTASGFSLSNYDMSWVRQAPGKGLEWIGYIWSDGNTDYASWAAGRFTASRASTTVDLKMTSLTTEDTATYFCARGYTGFFLWGPGTLVTVSS VL: DVVMTQTPSSVSTAVGDTVTIKCQASQSIGSSYLSWYQQKPGQPPKLLIYKTSTLASGVPSRFKGSGSGTEFTLTISDLESDDAATYYCQCTYYGGSWRVAFGGGTEVVVK : 3.4

# ELISA [abs. corr.] of P018.S.04.A.D02 (antibody, V domains shown, V regions on human Ig constant parts; also called AB27_71) VH: QSLEESGGRLVTPGTPLTLTCTASGFSLSTYAMGWVRQAPGEGLEWIGNINTDSGDTWYARWAKGRFTISTTSSTTVDLKITSPTIEDTATYFCARNPGDDVNLWGQGTLVTVSS VL: AQVLTQTPSPVSAAVGDTVTINCQASQSVYNNNDLAWFQQKPGQPPKLLIYRTSILASGVPSRFKGSGSGTQFTLTISDLESDDAATYYCQGYYSGVIYVFGGGTEVVVK = 3.42
